Molecular target: furin, P09958;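 also: purified furin at 1:10 enzyme:substrate in 50 mM HEPES pH 7.5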
Sequence (P09958 whole entry): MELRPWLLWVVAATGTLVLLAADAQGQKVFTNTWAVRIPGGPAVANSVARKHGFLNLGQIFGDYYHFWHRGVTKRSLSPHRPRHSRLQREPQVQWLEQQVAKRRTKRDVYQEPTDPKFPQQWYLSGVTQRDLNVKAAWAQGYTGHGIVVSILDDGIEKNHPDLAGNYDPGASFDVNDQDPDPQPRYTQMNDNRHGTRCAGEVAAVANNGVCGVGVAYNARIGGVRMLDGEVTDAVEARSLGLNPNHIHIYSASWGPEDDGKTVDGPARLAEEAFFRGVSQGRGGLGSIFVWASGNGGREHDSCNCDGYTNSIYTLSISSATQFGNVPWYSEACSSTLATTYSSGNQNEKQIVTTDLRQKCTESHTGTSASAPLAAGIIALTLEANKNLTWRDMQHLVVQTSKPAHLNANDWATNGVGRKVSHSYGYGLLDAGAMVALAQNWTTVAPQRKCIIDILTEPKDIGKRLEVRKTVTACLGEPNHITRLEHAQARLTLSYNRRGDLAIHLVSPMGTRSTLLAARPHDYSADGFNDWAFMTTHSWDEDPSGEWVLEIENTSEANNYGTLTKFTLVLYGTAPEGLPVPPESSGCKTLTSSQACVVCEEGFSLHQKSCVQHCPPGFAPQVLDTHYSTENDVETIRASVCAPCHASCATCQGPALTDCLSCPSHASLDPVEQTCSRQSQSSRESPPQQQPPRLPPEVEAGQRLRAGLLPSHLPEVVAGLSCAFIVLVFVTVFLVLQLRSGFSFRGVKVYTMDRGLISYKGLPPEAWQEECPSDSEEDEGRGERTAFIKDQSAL
Assay: furin cleavage Z-score vs untreated control; higher = more cleavage, active = 3.5 or more, inactive = 1 or less, 8 variable residues between constant flanks
Details: 7.5 min
This is one part of the list. The true hit rate is not given.
furin cleavage Z-score: recorded values
Assay Readout: furin cleavage Z-score

CAELITSCSSAGNASASA [HC1551]; -0.448 (inactive)
CAEVVTITWVAGNASASA [HC145]; -0.85 (inactive)
CAMEECSQMLAGNASASA [HC1746]; 0.461 (inactive)
CAEVMCHRPSAGNASASA [HC2346]; -0.818 (inactive)
